src = the supplement of paper PMC10567573

B1: FBXO33 (parent)
chain: RLRGLLRVLRGRPGAGSRRRGRMA

# Variants of: B1
# assay_text: protein stability index of a GFP-peptide fusion (GPS, HEK-293T) (PSI 1-6); higher = more stable;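 note: lentivirally expressed fusions sorted by FACS into six bins by GFP to DsRed ratio, PSI derived from sequencing read proportions per bin multiplied by bin number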
# condition_context: c terminus: a fixed tail appended
readout_type: protein stability index
Please reply with the number alone, leaving off any unit.

Prompt line: Param item = M23L ; retrieve measured protein stability index.
Response line: 2.89

Prompt line: Repeat for the following variant: R7E
Response line: 2.04

Prompt line: G14K , same question.
Response line: 1.86

Prompt line: What about this variant? G16T
Response line: 2.96

Prompt line: Now give it for R22I too.
Response line: 2.78

Prompt line: Then this variant: A15N
Response line: 1.8

Prompt line: Would you mind doing L5M as well?
Response line: 2.88

Prompt line: Now consider G4L and answer again.
Response line: 2.2

Prompt line: Follow-up item: V8D
Response line: 2.47

Prompt line: Then what about the variant R20M ?
Response line: 2.24

Prompt line: Now this one: S17K
Response line: 2.01

Prompt line: Then this variant: R12W
Response line: 1.79

Prompt line: Same question for G16H please.
Response line: 1.83

Prompt line: Another: L6D
Response line: 5.1

Prompt line: And L9V ?
Response line: 1.92

Prompt line: Next variant up: R1W
Response line: 1.69

Prompt line: // query: G11T
Response line: 2.23

Prompt line: Cool, now G21D
Response line: 1.78

Prompt line: Follow-up item: R18V
Response line: 1.26

Prompt line: R18F , same question.
Response line: 1

Prompt line: Then this variant: G14Y
Response line: 3

Prompt line: Moving on to V8I
Response line: 2.84

Prompt line: Also need L6E , thanks.
Response line: 2.75

Prompt line: Further, for L5E ?
Response line: 3.98

Prompt line: Next entry: R1Q
Response line: 2.02

Prompt line: Query G21H next
Response line: 1.66

Prompt line: Please answer likewise for G14L
Response line: 1.41

Prompt line: Next variant up: L2Q
Response line: 5.05

Prompt line: How about this variant: R18E
Response line: 1.99

Prompt line: Thanks! And R12L ?
Response line: 1.66

Prompt line: Request: R18L
Response line: 1.15

Prompt line: L2M ?
Response line: 3.22

Prompt line: Moving on to the next variant: R22N
Response line: 1.77

Prompt line: Consider next the variant L5A in the same way.
Response line: 4.21

Prompt line: Next variant up: S17A
Response line: 1.75

Prompt line: // same read-out, input: V8P
Response line: 4.41

Prompt line: Then A15K ?
Response line: 1.25

Prompt line: Quick one: A24Q
Response line: 2.74

Prompt line: Param item: L9Y
Response line: 2.73

Prompt line: Request: R10N
Response line: 1.72

Prompt line: Next up: R12G
Response line: 2.53

Prompt line: Another variant: R3D
Response line: 2.67

Prompt line: Next entry: V8Y
Response line: 2.64

Prompt line: Same lookup for G16L , please.
Response line: 1.44

Prompt line: Try G11C next.
Response line: 1.64

Prompt line: Let us now turn to A15T
Response line: 1.47
